experimental_target: CISD3 Gene Product (Miner2) (Homo sapiens, UniProt P0C7P0)
Sequence (P0C7P0 15-127): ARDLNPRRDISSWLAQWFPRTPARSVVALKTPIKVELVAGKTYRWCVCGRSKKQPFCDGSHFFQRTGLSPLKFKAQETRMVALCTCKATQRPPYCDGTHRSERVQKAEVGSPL
assay_remarks: Stability of Fe-S cluster binding of purified NEET protein (absorbance 458 nm)
Format: biochemical
experimental_setup: CISD3 gene product 20 μM, compound 60 μM, pH 6, at 180 minutes; vehicle control 11%
readout_kind: Residual cluster bound at end of experiment (Percentage Absorbance 458 nm at time zero)

[[record]]
compound = "CC1CC(C)(C)Cc2sc(NC(=O)c3ccc(NC4CCOCC4)cc3)c(C(=O)O)c21 (centres unmarked) [Compound #136]"
reported = "10% (11%)"

[[record]]
compound = "CC1(C)Cc2c(sc(NC(=O)c3ccc(N4CCOCC4)cc3)c2C(=O)O)C(C)(C)C1 [Compound #36]"
reported = "39% (11%)"

[[record]]
compound = "CC1(C)CCc2sc(NC(=O)c3ccccc3)c(C(=O)O)c21 [Compound #37]"
reported = "37% (11%)"

[[record]]
compound = "CN(c1ccc(C(=O)Nc2sc3c(c2C(=O)O)CC(C)(C)CC3(C)C)cc1)C1CCOCC1 [Compound #135]"
reported = "20% (11%)"

[[record]]
compound = "COC1CN(c2ccc(C(=O)Nc3sc4c(c3C(=O)O)CCC(C)(C)C4)cc2)C1 [Compound #147]"
reported = "10% (11%)"


So, CC1(C)Cc2c(sc(NC(=O)c3ccc(NCC4CCOCC4)cc3)c2C(=O)O)C(C)(C)C1 [Compound #132] ? Its Residual cluster bound at end of experiment (Percentage Absorbance 458 nm at time zero) was 50% (11%)

So, COCCNc1ccc(C(=O)Nc2sc3c(c2C(=O)O)CC(C)(C)CC3(C)C)cc1 [Compound #60] ? Its Residual cluster bound at end of experiment (Percentage Absorbance 458 nm at time zero) was 38% (11%)

So, COc1ccc(C(=O)Nc2sc3c(c2C(=O)O)CCC(C)(C)C3)cc1 [Compound #20] ? Its Residual cluster bound at end of experiment (Percentage Absorbance 458 nm at time zero) was 9% (11%)

---

System: H1N1 (influenza A/New Caledonia/20/99)
assay_remarks: microbe, parasite or virus in culture
Type: cell-based
experimental_setup: H1N1, A549, 48 h
Returns: string. Value is fulfilled if measured IC50 is below 100 nM, and not fulfilled if it is greater than or equal to it.

Determine if O=C(Nc1sc2c(c1C(=O)O)C1CCC2C1)c1ccccc1 (stereo not drawn) [Compound #28] shows IC50 strictly lower than 100 nM.
not fulfilled

Determine if CC1(C)CCc2c(sc(NC(=O)c3cnc(N4CCOCC4)cn3)c2C(=O)O)C1 [#230] shows IC50 strictly lower than 100 nM.
not fulfilled

Determine if CN(c1ccc(C(=O)Nc2sc3c(c2C(=O)O)CC(C)(C)CC3(C)C)cc1)C1CCOCC1 [Compound #135] shows IC50 strictly lower than 100 nM.
fulfilled

Determine if CC1(C)CCc2sc(NC(=O)c3ccc(Br)cc3)c(C(=O)O)c2C1 [Compound #154] shows IC50 strictly lower than 100 nM.
fulfilled

Determine if CC1CC(C)(C)Cc2sc(NC(=O)c3ccccc3)c(C(=O)O)c21 (stereo not drawn) [Compound #44] shows IC50 strictly lower than 100 nM.
fulfilled

Determine if CC1(C)CCc2c(sc(NC(=O)c3ccc(F)cc3)c2C(=O)O)C1 [Compound #19] shows IC50 strictly lower than 100 nM.
not fulfilled

Determine if COc1ccc(C(=O)Nc2sc3c(c2C(=O)O)CCC(C)(C)C3)nc1OC [Compound #94] shows IC50 strictly lower than 100 nM.
not fulfilled

Determine if CC1(C)CCc2c(sc(NC(=O)c3ccc(N4CCOCC4)cc3)c2C(=O)O)C1 [Compound #22] shows IC50 strictly lower than 100 nM.
not fulfilled

Determine if CC1(C)CCc2sc(NC(=O)c3ccc(NCC4CCOCC4)cc3)c(C(=O)O)c2C1 [#164] shows IC50 strictly lower than 100 nM.
fulfilled
